- SYSTEM TESTED: Recombinant human HDAC2 (Homo sapiens)
- Construct: Full length human HDAC2-FLAG was expressed in baculovirus infected Sf9 cells; FLAG (C); made in house; host or cells: Sf9 (baculovirus)
- Sequence (Q92769 whole entry): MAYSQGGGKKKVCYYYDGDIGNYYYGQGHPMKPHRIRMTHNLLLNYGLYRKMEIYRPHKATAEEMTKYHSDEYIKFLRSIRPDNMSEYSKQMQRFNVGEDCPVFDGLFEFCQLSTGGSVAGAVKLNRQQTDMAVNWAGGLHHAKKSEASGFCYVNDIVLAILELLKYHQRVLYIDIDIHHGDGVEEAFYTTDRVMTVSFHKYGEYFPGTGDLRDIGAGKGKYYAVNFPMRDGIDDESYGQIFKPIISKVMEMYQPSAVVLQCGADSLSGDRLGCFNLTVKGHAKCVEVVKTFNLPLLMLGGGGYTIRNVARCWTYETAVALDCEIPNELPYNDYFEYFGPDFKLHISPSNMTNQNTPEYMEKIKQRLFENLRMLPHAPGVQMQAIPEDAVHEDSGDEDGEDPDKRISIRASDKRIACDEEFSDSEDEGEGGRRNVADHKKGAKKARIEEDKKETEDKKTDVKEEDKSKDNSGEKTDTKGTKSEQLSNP
- METHOD: Human HDAC enzyme inhibitor Fluor-de-Lys assay, HDAC2
- Type: biochemical
- CONDITION DETAILS: recombinant human HDAC2, Fluor-de-Lys assay
METRIC NAME: pIC50
# pIC50 is unitless: minus log10 of the molar concentration; print number only

Reported pIC50 ( CCC(=O)CCCCC[C@H](NC(=O)C1CCC2(CC1)CN(C(C)C)C2)c1ncc(-c2cc3ccccc3nc2OC)[nH]1 ) = 8.09

Reported pIC50 ( CCC(=O)CCCCC[C@H](NC(=O)[C@H]1CC12CCN(C)CC2)c1ncc(-c2cc3ocnc3cc2OC)o1 ) = 7.44

Reported pIC50 ( CCC(=O)CCCCC[C@H](NC(=O)[C@H]1CC[C@@]2(CC1)OC(=O)c1cnccc12)c1ncc(-c2ccccc2)[nH]1 ) = 6.37

Reported pIC50 ( CCC(=O)CCCCC[C@H](NC(=O)[C@H]1CC12CCN(C)CC2)c1ncc(-c2ccc3ccc(C)nc3c2F)[nH]1 ) = 7.95

Reported pIC50 ( CCC(=O)CCCCC[C@H](NC(=O)[C@H]1CC12CCN(C)CC2)c1ncc(-c2ccc3cnc(Cl)cc3c2)[nH]1 ) = 8.15

Reported pIC50 ( CCC(=O)CCCCC[C@H](NC(=O)C1=NOC2(CCN(C)CC2)C1)c1ncc(-c2ccc(-c3ccncc3)cc2OC)o1 ) = 7.44

Reported pIC50 ( CCC(=O)CCCCC[C@H](NC(=O)C1NC(=O)CC12CNC2)c1nnc(-c2cc3ccccc3nc2OC)o1 (some centres unmarked) ) = 8.10

Reported pIC50 ( CCC(=O)CCCCCC(CC)(NC(=O)[C@H]1CC12CCN(CC1CC1)CC2)c1nc(-c2cc3ccc(C)nc3cc2OC)c[nH]1 (some centres unmarked) ) = 6.48

Reported pIC50 ( CCC(=O)CCCCC[C@H](NC(=O)C1=NOC2(CCN(S(C)(=O)=O)CC2)C1)c1ncc(-c2ccccc2)[nH]1 ) = 6.37

Reported pIC50 ( CCC(=O)CCCCC[C@H](NC(=O)C1=NOC2(CCN(C(C)C)CC2)C1)c1ncc(-c2ccccc2)[nH]1 ) = 7.00

Reported pIC50 ( CCC(=O)CCCCC[C@H](NC(=O)[C@H]1CC12CCN(C)CC2)c1ncc(-c2ccc(-c3cccnc3)nc2)[nH]1 ) = 7.73

Reported pIC50 ( CCC(=O)CCCCC[C@H](NC(=O)[C@@H]1CC12CCN(C)CC2)c1nnc(-c2cc3ccccc3nc2OC)o1 ) = 6.80

Reported pIC50 ( CCC(=O)CCCCC[C@H](NC(=O)C1CC12CCOCC2)c1ncc(-c2cc3ccc(C)nc3cc2OC)[nH]1 (single isomer, unassigned) [Compound 407] ) = 7.69

* * *

- SYSTEM TESTED: Recombinant human HDAC8 (Homo sapiens)
- Construct: purchased Enzo Life Sciences BML-SE145-0100
- Sequence (Q9BY41 whole entry): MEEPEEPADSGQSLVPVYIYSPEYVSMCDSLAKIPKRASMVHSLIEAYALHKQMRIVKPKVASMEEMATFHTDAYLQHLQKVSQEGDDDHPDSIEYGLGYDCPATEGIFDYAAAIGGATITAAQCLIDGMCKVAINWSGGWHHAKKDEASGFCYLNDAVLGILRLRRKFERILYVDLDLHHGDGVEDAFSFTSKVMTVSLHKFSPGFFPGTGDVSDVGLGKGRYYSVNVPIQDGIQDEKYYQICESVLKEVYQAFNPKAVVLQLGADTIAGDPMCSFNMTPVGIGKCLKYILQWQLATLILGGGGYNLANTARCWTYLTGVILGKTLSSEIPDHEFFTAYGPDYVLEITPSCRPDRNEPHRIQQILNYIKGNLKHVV
- METHOD: Human HDAC enzyme inhibitor Fluor-de-Lys assay, HDAC8
- Format: biochemical
- CONDITION DETAILS: recombinant human HDAC8, Fluor-de-Lys assay
Assign IC50 to each entry below.
Report the figure in µM without appending any unit label.

Reported IC50 ( CCC(=O)CCCCC[C@H](NC(=O)C1CC12CCN(C)CC2)c1ncc(-c2cc3ccccc3nc2OC)[nH]1 (some centres unmarked) ) = 3.02

Reported IC50 ( CCC(=O)CCCCC[C@H](NC(=O)C1CCC2(CC1)CN(C)C2)c1ncc(-c2cc3ccccc3nc2OC)[nH]1 [Compound 315] ) = 1.95

Reported IC50 ( CCC(=O)CCCCC[C@H](NC(=O)[C@H]1CC12CCN(CC)CC2)c1ncc(-c2ccc3nn(C4CC4)cc3c2)[nH]1 ) = 6.5

Reported IC50 ( CCC(=O)CCCCC[C@H](NC(=O)CC1CC2(CNC2)C1)c1ncc(-c2ccccc2)[nH]1 ) = 8.46

Reported IC50 ( CCCC(=O)CCCCC[C@H](NC(=O)[C@H]1CC12CCN(C)CC2)c1ncc(-c2ccc(F)cc2)[nH]1 ) = 20.6

Reported IC50 ( CCC(=O)CCCCC[C@H](NC(=O)[C@H]1CC12CCN(CCC(F)(F)F)CC2)c1ncc(-c2cc3ccccc3nc2OC)[nH]1 ) = 14.1

Reported IC50 ( CCC(=O)CCCCC[C@H](NC(=O)C1CC12CC1CCC(C2)N1C)c1ncc(-c2ccc3ncccc3c2)[nH]1 (single isomer, unassigned) ) = 5.1

Reported IC50 ( CCC(=O)CCCCC[C@H](NC(=O)C1CC12CCN(CC)CC2)c1nc(-c2ccc(F)cc2)[nH]c1-c1cn[nH]c1 (some centres unmarked) ) = 31.5

Reported IC50 ( CCC(=O)CCCCC[C@H](NC(=O)[C@H]1CC12CCN(C)CC2)c1ncc(-c2ccc(C(F)(F)F)cc2)[nH]1 ) = 15

Reported IC50 ( CCC(=O)CCCCC[C@H](NC(=O)[C@H]1CC[C@@]2(CC1)OC(=O)c1cnccc12)c1ncc(-c2ccccc2)[nH]1 ) = 6.67

Reported IC50 ( CCC(=O)CCCCC[C@H](NC(=O)[C@H]1C[C@@]12CCN(C)C2)c1ncc(-c2cc3ccccc3nc2OC)[nH]1 ) = 3.31

Reported IC50 ( CCC(=O)CCCCC[C@H](NC(=O)[C@@H]1CC12CN(C)C2)c1ncc(-c2cc3ccccc3nc2OC)[nH]1 ) = 2.49

Reported IC50 ( CCC(=O)CCCCC[C@H](NC(=O)[C@H]1CC12CCN(Cc1ccc(OC)cc1)CC2)c1ncc(-c2cc3ccccc3nc2OC)[nH]1 ) = 3.23

Reported IC50 ( CCC(=O)CCCCC[C@H](NC(=O)[C@H]1CC12CCN(C)CC2)c1ncc(-c2ccc3ccc(C)nc3c2F)[nH]1 ) = 0.798

Reported IC50 ( CCC(=O)CCCCC[C@H](NC(=O)[C@H]1CC12CCN(C)CC2)c1ncc(-c2ccc(F)cc2F)[nH]1 ) = 3.75

Reported IC50 ( CCC(=O)CCCCC[C@H](NC(=O)C1=NOC2(CCN(S(C)(=O)=O)CC2)C1)c1ncc(-c2ccccc2)[nH]1 ) = 8.96

Reported IC50 ( CCC(=O)CCCCC[C@H](NC(=O)[C@H]1CC12CCN(CC)CC2)c1ncc(-c2cc3ccn(CC)c(=O)c3cc2OC)[nH]1 ) = 9.01

Reported IC50 ( CCC(=O)CCCCC[C@H](NC(=O)[C@H]1C[C@]12CCN(C)C2)c1ncc(-c2cc3ccccc3nc2OC)[nH]1 ) = 3.87

Reported IC50 ( CCC(=O)CCCCC[C@H](NC(=O)[C@H]1CC12CCN(C)CC2)c1ncc(-c2ccnc(N3CCOCC3)c2F)[nH]1 ) = 4.59
